targetOfAssay: Lyn B (Homo sapiens, UniProt P07948)
Construct: purchased Promega
Sequence (P07948 1-491 isoform P07948-2): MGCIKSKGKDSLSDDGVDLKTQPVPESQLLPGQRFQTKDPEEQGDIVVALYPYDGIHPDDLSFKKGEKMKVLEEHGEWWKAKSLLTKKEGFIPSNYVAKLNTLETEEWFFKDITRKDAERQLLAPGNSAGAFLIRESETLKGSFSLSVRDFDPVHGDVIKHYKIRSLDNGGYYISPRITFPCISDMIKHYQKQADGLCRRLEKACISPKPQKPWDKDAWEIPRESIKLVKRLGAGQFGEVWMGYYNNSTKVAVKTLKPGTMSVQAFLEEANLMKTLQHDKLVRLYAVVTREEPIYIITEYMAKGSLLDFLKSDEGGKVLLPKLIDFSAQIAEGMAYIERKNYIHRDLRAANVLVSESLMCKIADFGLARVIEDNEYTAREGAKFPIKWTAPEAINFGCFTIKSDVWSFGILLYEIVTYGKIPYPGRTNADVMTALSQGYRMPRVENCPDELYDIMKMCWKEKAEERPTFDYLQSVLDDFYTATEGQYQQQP
measurementDescription: Tyrosine kinase assay (Kinase Selectivity System TK-2, ADP-Glo)
Format: biochemical
setupConditions: 1 h incubation, mean ± SD of four experiments
propertyName: inhibition at 0.5 µM (%)

> print(dat)
                             moleculesmiles          propertyname  unit  reported
1  COc1ccccc1/C=C/c1nc(Sc2cc(Cl)ccc2Cl)c2ccccc2n1  inhibition at 0.5 µM     %      26.2
2  COc1ccccc1/C=C/c1nc(Sc2ccccc2Cl)c2ccccc2n1  inhibition at 0.5 µM     %      67.1
3  COc1ccccc1/C=C/c1nc(Sc2cccc(O)c2)c2ccccc2n1  inhibition at 0.5 µM     %         0

1: COc1cccc(Sc2nc(/C=C/c3ccccc3OC)nc3cc(Cl)ccc23)c1
2: COc1ccccc1/C=C/c1nc(Sc2cc3c(cc2Br)OCO3)c2ccccc2n1
Input line: Of the pair 1 and 2 , name the member with the lesser recorded inhibition at 0.5 µM. Answer = label.
Output line: 1
(1: 0%, 2: 0.86%)
